- ASSAY METHOD TEXT: yeast display, Sf9 membrane polyspecificity reagent, FACS + sequencing; frameworks hold sequencing errors
OUTCOME MEASURE: polyreactivity (PSR sort gate)

[[record]]
sequence = "QVQLVESGGGLVQAGGSLRLSCAASGSIFQWYAMGWYRQAPGKERELVAAINWSSGSTYYADSVKGRFTISRDIAKNTVYLQMNSLKPEETAVYYCAARIGYGTSYLRRIYYWGQGTQVTVSS"
outcome_measure = "polyreactivity (PSR sort gate)"
endpoint_value = "high polyreactivity"

[[record]]
sequence = "QVQLVESGGGLVQAGGSLRLSCAAYGRTFRIYAMGWYRQAPGKERELVATITWRAGSTYYADSVKGRFTISRDNAKYTVYLQMNSLKPEDTAVYYCAADVSAYSGGYWLDYWGQGTQVTVSS"
outcome_measure = "polyreactivity (PSR sort gate)"
endpoint_value = "high polyreactivity"

[[record]]
sequence = "QVQLVDSAGGLVQAGGSLRLSCAAYGRTNYLYSMGWYRQAPGKERELVAAIRTGDGSTYYADSVKGRFTISRDNAKNTVYLQMISLKPEDTAVYYCAARVGKRYNWGQGTQVTVSS"
outcome_measure = "polyreactivity (PSR sort gate)"
endpoint_value = "high polyreactivity"


====

- ASSAY METHOD TEXT: yeast display, Sf9 membrane polyspecificity reagent, FACS + sequencing; frameworks hold sequencing errors
OUTCOME MEASURE: polyreactivity (PSR sort gate)

These solved cases illustrate the format of a correct answer.
[[record]]
sequence = "QVQLVESGGGLVQAGGSLRLSCAASGSIFVYNTMAWYRPAPVKERELVAAISSSGGSTYYADSVKGRFTISRDNAKNTVYLQMNSLKPEDTAVYYCAKGPLYSLFFQLDAPYRYGYWGQGTQVTVSS"
outcome_measure = "polyreactivity (PSR sort gate)"
endpoint_value = "low polyreactivity"

[[record]]
sequence = "QVQLVESGGGLVQAGGSLRLSCAASGSIFGYYAMGWYRQAPGKERELVAAITTRGGRTYYADSVKGRFTISRDNAKNTVYLQMNSLNPEDTAVYYCAARTGRGRYDYWGQGTQVTVSS"
outcome_measure = "polyreactivity (PSR sort gate)"
endpoint_value = "high polyreactivity"

[[record]]
sequence = "QVQLVESGGGLVQAGGSLRVSCAASGSSFTYNAMGWYRQAPGKERELVASINSRGGTTYYADSVKGRFTISRDNAKNTVYFQMNSLKPEDTAVYYCATDVYRLGEYDYWGQGTQVTVSS"
outcome_measure = "polyreactivity (PSR sort gate)"
endpoint_value = "low polyreactivity"

[[record]]
sequence = "HVQLVESGGGLVQAGGSLRLSCAASGFIFPENAMGWYRQAPGKERELVAAIRTGGSTYYADSVKGRFTISRDNAKNTVYLQMNSLKPEDTAVYYCAARFHYEKYSYWYFDEDYWGQGTQVTVSS"
outcome_measure = "polyreactivity (PSR sort gate)"
endpoint_value = "high polyreactivity"


# next sequence below
INPUT: Reported polyreactivity (PSR sort gate) for `QVQLLESGGGLVQAGGSLRLSCASSGYINSYYTMGWYRHATGKERVLVASIRWAGGRTYYADSVKGRFTFSRDNAKITVYLQMNSLKPEDTAVYYCNVKSSRFLDVGRMEYWGQGTQVTVSS` : what is it?
OUTPUT: high polyreactivity

====

- ASSAY METHOD TEXT: yeast display, Sf9 membrane polyspecificity reagent, FACS + sequencing; frameworks hold sequencing errors
OUTCOME MEASURE: polyreactivity (PSR sort gate)

[[record]]
sequence = "QVQLVESGGGLVQAGGSLRLSCAAPGSTFYLYAMGWYRQAPGKERELVAAISSGGRTNYADSVKGRFTISRDNAKNTVYLQMNSLKPEDTAVYYCAARIQCPTWSLYYYWGQGTQVTVSS"
endpoint_value = "high polyreactivity"

[[record]]
sequence = "QVQLVESGGGLVQAGGRLRLSCAASGRIFFRNTMGWYRQEPGKERQLVAAISGSGGSKYYADSVKGRFTISRDNAKNTVYLQMNSLKPEDTAVYYCAKRWLYPISYDYWGQGTQVTVSS"
endpoint_value = "high polyreactivity"

[[record]]
sequence = "QVQLVESGGGLVQAGGSLRISCAASGFTFSRNVMGWYRQAPGKERELVADITLSGASTYYADSVKGRFTISRDNAKNTVYLQMNSLNPEDTAGYYCAADPYLWRWGWRHDYWGQGTQVTVSS"
endpoint_value = "low polyreactivity"

[[record]]
sequence = "QVQLVESGGGLVQAGGSLRLSCAASGFTFYKYAMGWYRPAPGKERELVAAITWSGGRTYYADSVKGRFTISRDNAKNTVYLKMNSLKPEDTAVYYCTARQKQGNFDYWGQGTQVTVSS"
endpoint_value = "high polyreactivity"


# next sequence below
INPUT: Reported polyreactivity (PSR sort gate) for `QVQLGESRGGLVQAGGSLRLSCAASGIIFTFNAMVWYSQAPGKERELVAGISQGGSSTNYADSVKGRFTISRDNAKNTVDLQRNSLKREVTAVYYCAAYVDIVGDYWVVGYYYWGQGTQVTVSS` : what is it?
OUTPUT: low polyreactivity

====

- ASSAY METHOD TEXT: yeast display, Sf9 membrane polyspecificity reagent, FACS + sequencing; frameworks hold sequencing errors
OUTCOME MEASURE: polyreactivity (PSR sort gate)

These solved cases illustrate the format of a correct answer.
[[record]]
sequence = "QDQLVESGGGLVQAGGSLRLSCAASGYTFKAYAMVWYRQAPGKERELVDAISRGGRTNYADSVKGRFTISRDNAKNTVYLQMNSLKPEDTAVYYCNTQRQLGVRFYDRSRQGDYWGQGTQVTVSS"
outcome_measure = "polyreactivity (PSR sort gate)"
endpoint_value = "high polyreactivity"

[[record]]
sequence = "QVQLVETGGGLVQAGGSLRISCAASGFIFPSYAMGWYRQAPGKERELVAAITSGGRTYYADSVKGLFTISRDNAKKTVYLQMNSLKPEDYAVYYCAAKSHSKTGTRYYYCGQGTQVTVSS"
outcome_measure = "polyreactivity (PSR sort gate)"
endpoint_value = "high polyreactivity"

[[record]]
sequence = "QVQLVESGGGLVQAGGSLRLSCAASGRTFKGYAMGWYRQAPGKERELVAAITGSVGSTYYADSVKGRFTISRDNAKNTVYLQMNSLKPEDTAVYYCAKRWKATRARYDYWGLGTQVTVSS"
outcome_measure = "polyreactivity (PSR sort gate)"
endpoint_value = "high polyreactivity"

[[record]]
sequence = "QVQLVESGGGLVQAGGSLRLSCAASGRTFPRYGMGWYRQAPGKERELVATIRTGGRTNYADSVKGRFTISRDNAKNTVYLQMNSLKPEDTAVYYCATDSSKHPYSPTLLKFDYWGQGTQVTVSS"
outcome_measure = "polyreactivity (PSR sort gate)"
endpoint_value = "low polyreactivity"

[[record]]
sequence = "QDQLVESGGGVVQAGGSLRLSCAASGSTFEYNAMGWYRQAPGKERELVASSTNYADSVKGRFTISRDNAKNTVYLQMNSLKPEDTAVYYCGREQGVNRNHDYWGQGTQVTVSS"
outcome_measure = "polyreactivity (PSR sort gate)"
endpoint_value = "low polyreactivity"

[[record]]
sequence = "QVQLVESGGGLVQAGGSLRLSCAASGRIFRYYVLGWYRQAPGKERELVATINWSGSRTYYADSVKGRFTISRDNAKNTVYLQMNSLKPEDTAVYYCAARTFNTYPRYYYWGQGTQVTVSS"
outcome_measure = "polyreactivity (PSR sort gate)"
endpoint_value = "high polyreactivity"


INPUT: Reported polyreactivity (PSR sort gate) for `QVQLVESGGGLVQAGGSRRLSCAASGIIFTRNSMGWYRQAPGKERELVAAISRSGGRTYYADSVKGRFTISRDNAKNTVYLQMNSLKPEDTAVYYCYPRDKNLQAYDYWGQGNQVTVSS` : what is it?
OUTPUT: high polyreactivity

INPUT: Next sequence up: `QVQLVESGGGLVLAGGSLRLSCAASGSTFEYNAMGWYRPAPGKERELVASSTNYADSVKGRFTISRDNAKNTVSLQRNSLKPEDTAVNYSAREQGVNRNHDYWGQGTQVTVSS`
OUTPUT: low polyreactivity

INPUT: Next sequence up: `QVQLVESGGGLVQAGGSLRLSCAASGSTFGRNARGWYRQAPGKERELVAAITASGGTTYYADSVKGRFTISRDNAKNTVYLQMNSLKPEDTAVYYCNVSYLVYRWNFGWSMDFWGQGTQLTVSS`
OUTPUT: low polyreactivity

INPUT: Next sequence up: `QVQLVESGGGLVQAGGSLRLSCAASGSIVVWNDMGWYRQAPGTEREFVAAITSRDGSTYYADSVKGRFTISRDNAKNTVYLQMNSLKPEDTAVYYCAARLRVTVFYSRTRYYWGQGTQVTVSS`
OUTPUT: low polyreactivity

INPUT: Next sequence up: `QVQLVESGGGLVQAGGSLRLSCAASGFIFRSYAMGWYRQAPGKERELVAAISSSGGRTYYADSVKGRFTISRDNAKNTVYLQMNSLKPEDTAVYYCATSLYTDNSWDNYWGQGTQVTVSS`
OUTPUT: high polyreactivity
